Catalogue of ED50 readings, one per entry.
# System: Male ICR mice
# Experiment description: Change in rectal temperature (RT) in mice
# Type: in vivo, mouse
# Measurement parameters: Mus musculus, iv, Table 6; mice, i.v.; read-out: R.T. ED50

# annotated cases, reported ED50 shown
| Compound | ED50 |
| --- | --- |
| CCCC(C)(C)c1cc(O)c(C2CCCC(C)C2)c(O)c1 (stereo not drawn) | 21 mg/kg |
| CCCCCCC(C)(C)c1cc(O)c(C2CCCC(C)C2)c(O)c1 (single isomer, unassigned) [O-1797A] | 0.252 mg/kg |
| CCCCCCC(C)(C)c1cc(O)c(C2CCCC(C)C2)c(O)c1 (mixture of isomers) [O-1657] | 0.29 mg/kg |
| CCCCCCC(C)(C)c1cc(O)c(C2CCCC2)c(O)c1 | 4.24 mg/kg |

Missing value: ED50, Male ICR mice, entry CCCCCCC(C)(C)c1cc(O)c(C2CCSCC2)c(O)c1 . Fill in?
4.53 mg/kg

Same question for CCCCCCC(C)(C)c1cc(O)c(C2CCC(C)CC2)c(O)c1 (stereo not drawn) please.
1.12 mg/kg
